# measured_target: Cytochrome P450 2C19 (Homo sapiens)
# measurement_protocol: Cytochrome P450 Family 2 Subfamily C Member 19 (CYP2C19) small molecule antagonists: luciferase reporter qHTS assay (AID 1671197); also: nearly all actives have a fitted effect of over 65% in size
# reported_conditions: P450-Glo CYP2C19 enzyme, luciferin luminescence, 1 h; series mostly up to 115 µM
Results filed as inconclusive are left out. The source made the active and inactive calls. Calls follow the shape of the dose curve; as a rule, active = well fitted inhibition curve with a large enough effect in the repeat runs; inconclusive = weak or mixed curves; inactive = no such curve, though single readings can be large or run the other way.
Possible outcomes: Y (active), N (inactive)

compound	classification
Oc1ccc(Cl)cc1C1CCCC1	Y
CCOC(=O)OC(=O)OCC	N
O=C1OC(O)C(C(Cl)Cl)=C1Cl (stereo unspecified)	N
Nc1ccc(Oc2cccc(Oc3ccc(N)cc3)c2)cc1	Y
Cn1c(=O)[nH]c2ncn(C)c2c1=O	N
Cc1ccc(C2OC[C@@H]3OC(c4ccc(C)cc4)O[C@H]([C@H](O)CO)[C@@H]3O2)cc1 (stereo partly specified)	Y
NC(=O)C1CO1 (stereo unspecified)	N
CC1CCC(C(C)(C)O)CC1 (stereo unspecified)	N
O=S(=O)(c1ccc(OCc2ccccc2)cc1)c1ccccc1O	Y
CC(=O)CC(N)=O	N
CC(C=O)c1ccccc1 (stereo unspecified)	Y
C=Cc1ccncc1	N
C=CC(=O)O[C@H]1C[C@@H]2CC[C@@]1(C)C2(C)C	N
CCCCCCCCCC[N+](C)(CCCCCCCCCC)CCC[Si](OC)(OC)OC	Y
COc1c(Br)cc(Br)c(C)c1Br	Y
COCCC(=O)OC	N
Clc1ccc2c(Cl)ccnc2c1	N
CCN(CC)c1ccc2c(c1)Oc1cc(N(CC)CC)ccc1C21OC(=O)c2ccccc21	Y
CCc1cccc(C)c1N(C(=O)C(=O)O)C(C)COC (stereo unspecified)	N
COc1cc(/C=C/C(=O)CC(=O)/C=C/c2ccc(O)c(OC)c2)ccc1O	Y
COc1ccc(OC)c(N=Nc2c(O)ccc3ccccc23)c1	Y
CC1(C)[C@H]2CC[C@]1(C)C(=O)C2	N
CN1CCN(C)CC1	N
C[C@H]1O[C@@H](O[C@H]2CC[C@@]3(C)[C@H](CC[C@@H]4[C@@H]3C[C@@H](O)[C@]3(C)[C@@H](C5=CC(=O)OC5)CC[C@]43O)C2)C[C@H](O)[C@@H]1O[C@H]1C[C@H](O)[C@H](O[C@H]2C[C@H](O)[C@H](O[C@@H]3O[C@H](CO)[C@@H](O)[C@H](O)[C@H]3O)[C@@H](C)O2)[C@@H](C)O1	N
CC/C=C\C/C=C\C/C=C\CCCCCCCC(=O)OC	Y
CC/C(=C(/c1ccc(O)cc1)c1ccc(OCCN(C)C)cc1)c1ccccc1	Y
CCCCCc1ccc(O)cc1	Y
CC(C)C(=O)C(C)C	N
C/C=C/C(=O)C1=C(C)C=CCC1(C)C	N
CCCCCN=C(N)N/N=C/c1c[nH]c2ccc(OC)cc12	N
Oc1ccc(C2(c3ccc(O)c(C4CCCCC4)c3)CCCCC2)cc1C1CCCCC1	Y
C=C(C)C1CCC(C)CC1O (stereo unspecified)	N
CCCCCCCC/C=C\CCCCCCCC(=O)N(CCO)CCO	Y
C=CC(=O)OCC(Br)CBr (stereo unspecified)	N
C=Cc1ccc(O)c(OC)c1	Y
Oc1cccc2c(O)cccc12	Y
CCc1cccc(CC)c1	N
C1=CCCC1	N
O=C1CCC(=O)N1	N
O=C(NCc1ncc(C(F)(F)F)cc1Cl)c1c(Cl)cccc1Cl	Y
CCCCCCCCCCCCCCCCCCNC(=O)OC1CCN(C(=O)OC[C@H](COC(=O)N(Cc2cccc[n+]2CC)C(=O)c2ccccc2OC)OC)CC1	Y
CC(CC(C)(C)C)CC(C)(C)CC(C)(C)C (stereo unspecified)	N
CC(C)(c1ccc(Oc2ccc(N)cc2)cc1)c1ccc(Oc2ccc(N)cc2)cc1	Y
CN1CC[C@H](c2c(O)cc(O)c3c(=O)cc(-c4ccccc4Cl)oc23)[C@H](O)C1	N
Cc1ccc2sc3cccc(C)c3c2c1	N
CCCC(C)C=O (stereo unspecified)	N
